# test-method-notes: rat microsomal stability (RLM)
# run-parameters: microsomal stability half-life
// values below are reported Metab. Stabil. (m)
assay-endpoint: Metab. Stabil. (m)

                                   compound      assay_endpoint  qual  reading
0  CCn1nc(C)c(CNC(=O)C2=C(C)NC(Nc3nc4ccc(F)c(N)c4o3)=NC2c2ccc(C)cc2Cl)c1F (stereo not shown)  Metab. Stabil. (m)     =     3.55
1  CC1=C(C(=O)NCc2ccc(Cl)cc2)C(c2ccccc2Cl)N=C(Nc2nc3ccccc3o2)N1 (stereo not shown)  Metab. Stabil. (m)     =    11.91
2  CC1=C(C(=O)Nc2cncc(C(=O)O)c2)C(c2ccccc2Cl)N=C(Nc2nc3ccccc3o2)N1 (stereo not shown)  Metab. Stabil. (m)     >       30
3  CC1=C(C(=O)NCc2cnn(CC(F)(F)F)c2)C(c2ccc(C)cc2Cl)N=C(Nc2nc3ccc(F)c(N)c3o2)N1 (stereo not shown)  Metab. Stabil. (m)     =    18.69
4  CC1=C(C(=O)Nc2cccc(C(=O)O)c2)C(c2ccccc2Cl)N=C(Nc2nc3ccccc3o2)N1 (stereo not shown)  Metab. Stabil. (m)     >       30
5  CC1=C(C(=O)NCc2cnn(C)c2)C(c2ccc(Cl)cc2Cl)N=C(Nc2nc3cccc(N)c3o2)N1 (stereo not shown)  Metab. Stabil. (m)     =    17.76
6  CC1=C(C(=O)Nc2ccccc2Cl)C(c2ccccc2Cl)N=C(Nc2nc3ccccc3o2)N1 (stereo not shown)  Metab. Stabil. (m)     =    28.74
